Hi! I'm sharing some pKi results obtained with Carbonic anhydrase 2 (Homo sapiens, UniProt P00918).
Lab note: report pKi as minus log10 of the concentration in molar units, number only.

Past entries and their recorded results:
>>> df
                                   compound  assay_result
0  NS(=O)(=O)c1ccc(N2C(=O)c3cccnc3C2=O)c(F)c1          8.00
1  NS(=O)(=O)c1cc(S(N)(=O)=O)c(NC(=O)c2cccc(C(=O)O)n2)c(Cl)c1Cl          8.00
2  Cn1nc(S(N)(=O)=O)s/c1=N\C(=O)c1cccc(C(=O)O)n1          8.15
3  NS(=O)(=O)c1cc(S(N)(=O)=O)c(NC(=O)c2cccc(C(=O)O)n2)cc1Cl          8.05
4  NS(=O)(=O)c1ccc(CCNC(=O)c2cccc(C(=O)O)n2)cc1          8.15
5  CCN(C(=O)c1cccc(C(=O)O)n1)C1CC(C)S(=O)(=O)c2sc(S(N)(=O)=O)cc21 (configuration not stated)          8.30
6  NS(=O)(=O)c1ccc(NN2C(=O)c3cccnc3C2=O)cc1          6.56
7  NS(=O)(=O)c1ccc(CNC(=O)c2cccc(C(=O)O)n2)cc1          7.44
8  NS(=O)(=O)c1ccc(N2C(=O)c3cccnc3C2=O)c(Br)c1          7.51
9  NS(=O)(=O)c1ccc(N2C(=O)c3cccnc3C2=O)c(I)c1          7.48

Prompt: Record lookup: for Carbonic anhydrase 2 (Homo sapiens, UniProt P00918), what pKi belongs to NS(=O)(=O)c1ccc(N2C(=O)c3cccnc3C2=O)c(Cl)c1 ?
Completion: 7.36

Prompt: Record lookup: for Carbonic anhydrase 2 (Homo sapiens, UniProt P00918), what pKi belongs to NS(=O)(=O)c1nc2ccc(OCCONC(=O)c3cccc(C(=O)O)n3)cc2s1 ?
Completion: 8.52

====

A collection of molecules and their measured log10 Ki
# TGT: Carbonic anhydrase 1 (Homo sapiens, UniProt P00915)
# Sequence (P00915 whole entry): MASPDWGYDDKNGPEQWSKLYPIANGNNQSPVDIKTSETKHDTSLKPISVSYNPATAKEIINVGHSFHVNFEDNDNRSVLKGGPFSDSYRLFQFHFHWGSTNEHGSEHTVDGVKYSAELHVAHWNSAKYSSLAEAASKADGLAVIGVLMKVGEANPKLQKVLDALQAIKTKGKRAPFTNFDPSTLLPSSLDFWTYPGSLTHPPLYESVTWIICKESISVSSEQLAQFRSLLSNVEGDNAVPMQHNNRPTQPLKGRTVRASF
Values are log10 of Ki in µM.

MOLECULE	ASSAY_RESULT
NS(=O)(=O)c1ccc(NN2C(=O)c3cccnc3C2=O)cc1	1.33

--- query ---
Prompt: Record lookup: for Carbonic anhydrase 1 (Homo sapiens, UniProt P00915), what log10 Ki belongs to NS(=O)(=O)c1ccc(NC(=O)c2cccc(C(=O)O)n2)c(Br)c1 ?
Completion: -0.24

====

# RUN_DESCRIPTION: Compound was tested for solubility in pH buffer, at 25 degree C.(As hydrochloride salts)
# Format: ADME
RESULT_TYPE: solubility (mM)
Reply numerically in mM, unit not repeated.

Prompt: Field request: solubility | item: CCN(C(=O)c1cccc(C(=O)O)n1)C1CC(C)S(=O)(=O)c2sc(S(N)(=O)=O)cc21 (stereo unspecified)
Completion: 58

====

A collection of compounds and their measured pKi
# TGT: Carbonic anhydrase 1 (Homo sapiens, UniProt P00915)
Lab note: report pKi as minus log10 of the concentration in molar units, number only.

Prompt: Record lookup: for Carbonic anhydrase 1 (Homo sapiens, UniProt P00915), what pKi belongs to NS(=O)(=O)c1nc2ccc(N3C(=O)c4cccnc4C3=O)cc2s1 ?
Completion: 7.92

Prompt: Record lookup: for Carbonic anhydrase 1 (Homo sapiens, UniProt P00915), what pKi belongs to NS(=O)(=O)c1cc(S(N)(=O)=O)c(N2C(=O)c3cccnc3C2=O)c(Cl)c1Cl ?
Completion: 6.30

Prompt: Record lookup: for Carbonic anhydrase 1 (Homo sapiens, UniProt P00915), what pKi belongs to NS(=O)(=O)c1ccc(NC(=O)c2cccc(C(=O)O)n2)c(Cl)c1 ?
Completion: 6.22

Prompt: Record lookup: for Carbonic anhydrase 1 (Homo sapiens, UniProt P00915), what pKi belongs to NS(=O)(=O)c1cc(S(N)(=O)=O)c(N2C(=O)c3cccnc3C2=O)cc1Cl ?
Completion: 6.22

Prompt: Record lookup: for Carbonic anhydrase 1 (Homo sapiens, UniProt P00915), what pKi belongs to NS(=O)(=O)c1cccc(N2C(=O)c3cccnc3C2=O)c1 ?
Completion: 4.70

Prompt: Record lookup: for Carbonic anhydrase 1 (Homo sapiens, UniProt P00915), what pKi belongs to NS(=O)(=O)c1nnc(N2C(=O)c3cccnc3C2=O)s1 ?
Completion: 7.41

====

# TGT: Carbonic anhydrase 4 (Bos taurus, UniProt Q95323)
# Sequence (Q95323 whole entry): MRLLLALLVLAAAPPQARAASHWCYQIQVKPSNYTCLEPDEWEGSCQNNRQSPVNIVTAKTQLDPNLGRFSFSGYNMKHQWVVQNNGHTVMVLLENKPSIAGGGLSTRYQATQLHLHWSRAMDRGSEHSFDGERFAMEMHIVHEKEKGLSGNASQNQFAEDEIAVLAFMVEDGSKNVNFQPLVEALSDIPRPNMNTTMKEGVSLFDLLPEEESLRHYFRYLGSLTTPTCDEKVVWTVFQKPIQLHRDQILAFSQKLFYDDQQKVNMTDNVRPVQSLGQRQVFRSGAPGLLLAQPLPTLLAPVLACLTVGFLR
pKi: −log10 of the molar value.
Rule: pKi under 7 gives false, otherwise true.

>>> print(df.to_string())
                                   molecule  label_value
0  NS(=O)(=O)c1ccc(NN2C(=O)c3cccnc3C2=O)cc1        false
1  NS(=O)(=O)c1nc2ccc(ONC(=O)c3cccc(C(=O)O)n3)cc2s1         true
2  NS(=O)(=O)c1nc2ccc(OCCONC(=O)c3cccc(C(=O)O)n3)cc2s1         true
3  NS(=O)(=O)c1ccc(CCN2C(=O)c3cccnc3C2=O)cc1         true
4  NS(=O)(=O)c1cc(S(N)(=O)=O)c(N2C(=O)c3cccnc3C2=O)cc1Cl         true
5   Nc1c(S(N)(=O)=O)cc(S(N)(=O)=O)c(Cl)c1Cl        false
6  Cn1nc(S(N)(=O)=O)s/c1=N\C(=O)c1cccc(C(=O)O)n1         true
7  CCN(C(=O)c1cccc(C(=O)O)n1)C1CC(C)S(=O)(=O)c2sc(S(N)(=O)=O)cc21 (stereo not drawn)         true
8  NS(=O)(=O)c1cc(S(N)(=O)=O)c(NC(=O)c2cccc(C(=O)O)n2)c(Cl)c1Cl         true
9  NS(=O)(=O)c1cccc(NC(=O)c2cccc(C(=O)O)n2)c1        false

Prompt: Does the molecule NS(=O)(=O)c1nnc(NC(=O)CCNC(=O)c2cccc(C(=O)O)n2)s1 have recorded pKi that is 7 or more?
Completion: true

Prompt: Does the molecule NS(=O)(=O)c1ccc(N2C(=O)c3cccnc3C2=O)c(F)c1 have recorded pKi that is 7 or more?
Completion: true

Prompt: Does the molecule NS(=O)(=O)c1nc2ccc(NC(=O)c3cccc(C(=O)O)n3)cc2s1 have recorded pKi that is 7 or more?
Completion: true

====

# TGT: Carbonic anhydrase 2 (Homo sapiens, UniProt P00918)
pKi: −log10 of the molar value.
Rule: pKi under 8 gives No, otherwise Yes.

Example results:
>>> df
                                        mol                                       tgt  label_value
0  NS(=O)(=O)c1nnc(NC(=O)CCNC(=O)c2cccc(C(=O)O)n2)s1  Carbonic anhydrase 2 (Homo sapiens, UniProt P00918)          Yes
1  NS(=O)(=O)c1ccc(CONC(=O)c2cccc(C(=O)O)n2)cc1  Carbonic anhydrase 2 (Homo sapiens, UniProt P00918)           No
2  NS(=O)(=O)c1ccc(CN2C(=O)c3cccnc3C2=O)cc1  Carbonic anhydrase 2 (Homo sapiens, UniProt P00918)           No
3  NS(=O)(=O)c1nc2ccc(ONC(=O)c3cccc(C(=O)O)n3)cc2s1  Carbonic anhydrase 2 (Homo sapiens, UniProt P00918)          Yes
4  NS(=O)(=O)c1ccc(NNC(=O)c2cccc(C(=O)O)n2)cc1  Carbonic anhydrase 2 (Homo sapiens, UniProt P00918)           No
5  NS(=O)(=O)c1nc2ccc(NC(=O)c3cccc(C(=O)O)n3)cc2s1  Carbonic anhydrase 2 (Homo sapiens, UniProt P00918)          Yes

Here is another compound to look at.
Prompt: Does the compound NS(=O)(=O)c1ccccc1N1C(=O)c2cccnc2C1=O have recorded pKi that is 8 or more?
Completion: No

====

# RUN_DESCRIPTION: Compound was tested for solubility in pH buffer, at 25 degree C.(As sodium hydroxylate salts)
# Assay type: ADME
RESULT_TYPE: solubility (mM)
Reply numerically in mM, unit not repeated.

Prompt: Field request: solubility | item: CCN(C(=O)c1cccc(C(=O)O)n1)C1CC(C)S(=O)(=O)c2sc(S(N)(=O)=O)cc21 (stereo unspecified)
Completion: 64

====

A collection of molecules and their measured Ki
# TGT: Carbonic anhydrase 1 (Homo sapiens)
Reply numerically in nM, unit not repeated.

                                       mol  assay_result
0               Nc1ccc2nc(S(N)(=O)=O)sc2c1            70
1  NS(=O)(=O)c1ccc(N2C(=O)c3cccnc3C2=O)cc1         15500

--- query ---
Prompt: Record lookup: for Carbonic anhydrase 1 (Homo sapiens), what Ki belongs to NS(=O)(=O)c1nnc(NC(=O)CCN2C(=O)c3cccnc3C2=O)s1 ?
Completion: 18
